- Tested on: COR-L95 (Small Cell Lung Carcinoma)
- Assay protocol: combination Emax (second highest fraction inhibited in the dose matrix, 72 h); higher = more inhibition; extreme values may be limits of the assay
Answer N if combination Emax is under 0.4, and Y if it is 0.4 or more.

| Molecule | Label |
| --- | --- |
| CS(=O)(=O)CCNCc1ccc(-c2ccc3ncnc(Nc4ccc(OCc5cccc(F)c5)c(Cl)c4)c3c2)o1 [Lapatinib] + C[C@@H](Oc1cc(-c2cnn(C3CCNCC3)c2)cnc1N)c1c(Cl)ccc(F)c1Cl [Crizotinib] (first compound max 10 µM, 7x7, partner max 10 µM) | Y |
| NC1(C(=O)N[C@@H](CCO)c2ccc(Cl)cc2)CCN(c2ncnc3[nH]ccc23)CC1 [Capivasertib] + Cn1cnc2c(F)c(Nc3ccc(Br)cc3Cl)c(C(=O)NOCCO)cc21 [Selumetinib] (first compound max 10 µM, 7x7, partner max 10 µM) | N |
| Cn1cnc2c(F)c(Nc3ccc(Br)cc3Cl)c(C(=O)NOCCO)cc21 [Selumetinib] + C=CCn1c(=O)c2cnc(Nc3ccc(N4CCN(C)CC4)cc3)nc2n1-c1cccc(C(C)(C)O)n1 [AZD1775] (first compound max 10 µM, partner max 1 µM) | N |
| C[C@@H]1COCCN1c1cc(C2([S@](C)(=N)=O)CC2)nc(-c2ccnc3[nH]ccc23)n1 [AZD6738] + Nc1ccn([C@@H]2O[C@H](CO)[C@@H](O)C2(F)F)c(=O)n1 [Gemcitabine] (first compound max 10 µM, 7x7, partner max 0.3 µM) | Y |

# next molecule below
Is combination Emax at least 0.4? Consider Cc1c2c(nn1C)CSCc1cc(n(C)n1)CSc1cc(c3ccccc3c1)OCCCc1c(C(=O)O)n(C)c3c-2c(Cl)ccc13 [AZD5991] + CC1(C)CCC(CN2CCN(c3ccc(C(=O)NS(=O)(=O)c4ccc(NCC5CCOCC5)c([N+](=O)[O-])c4)c(Oc4cnc5[nH]ccc5c4)c3)CC2)=C(c2ccc(Cl)cc2)C1 [Venetoclax] (first compound max 1 µM, 7x7, partner max 1 µM)
Y

----------
- Test system: DSH1 (Bladder Carcinoma);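 note: after 72 h of two-drug dosing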
- Assay protocol: Bliss excess, mean over the matrix (fraction); higher = more synergy
So basically: Bliss excess at 0.03 or higher? That is 1 (yes). Lower than 0.03? That is 0 (no).

Study these solved cases before continuing.
| Compound | Assayed system | Label |
| --- | --- | --- |
| COc1nnc2ccc(N3CCC(c4ccc(OCCN5CCN(C)C(=O)[C@H]5C)cc4)CC3)nn12 [AZD5153] + CC1(C)CCC(CN2CCN(c3ccc(C(=O)NS(=O)(=O)c4ccc(NCC5CCOCC5)c([N+](=O)[O-])c4)c(Oc4cnc5[nH]ccc5c4)c3)CC2)=C(c2ccc(Cl)cc2)C1 [Venetoclax] (first compound max 1 µM, 7x7, partner max 1 µM) | DSH1 (Bladder Carcinoma) | 0 (no) |
| NC1(C(=O)N[C@@H](CCO)c2ccc(Cl)cc2)CCN(c2ncnc3[nH]ccc23)CC1 [Capivasertib] + CC(C)n1c(=O)n(C)c2cnc3cc(F)c(-c4ccc(OCCCN5CCCCC5)nc4)cc3c21 [AZD1390] (first compound max 10 µM, 7x7, partner max 0.3 µM) | DSH1 (Bladder Carcinoma) | 0 (no) |
| Cc1c2c(nn1C)CSCc1cc(n(C)n1)CSc1cc(c3ccccc3c1)OCCCc1c(C(=O)O)n(C)c3c-2c(Cl)ccc13 [AZD5991] + Cn1cnc2c(F)c(Nc3ccc(Br)cc3Cl)c(C(=O)NOCCO)cc21 [Selumetinib] (first compound max 1 µM, 7x7, partner max 3 µM) | DSH1 (Bladder Carcinoma) | 0 (no) |
| C=CCn1c(=O)c2cnc(Nc3ccc(N4CCN(C)CC4)cc3)nc2n1-c1cccc(C(C)(C)O)n1 [AZD1775] + C1CN(CCC1(C(=O)N[C@@H](CCO)C2=CC=C(C=C2)Cl)N)C3=NC=NC4=C3C=CN4 [Capivasertib] (first compound max 3 µM, partner max 3 µM) | DSH1 (Bladder Carcinoma) | 1 (yes) |
| Cc1cc2ncnn2cc1Nc1ncc2c(n1)n(C1CCOCC1)c(=O)n2C [AZD7648] + C=CCn1c(=O)c2cnc(Nc3ccc(N4CCN(C)CC4)cc3)nc2n1-c1cccc(C(C)(C)O)n1 [AZD1775] (first compound max 10 µM, partner max 1 µM) | DSH1 (Bladder Carcinoma) | 0 (no) |
| CN(CCO)CC[C@H](CSc1ccccc1)Nc1ccc(S(=O)(=O)NC(=O)c2ccc(N3CCC([C@@H](O)c4ccccc4-c4ccc(Cl)cc4)CC3)cc2)cc1S(=O)(=O)C(F)(F)F [AZD4320] + CS(=O)(=O)CCNCc1ccc(-c2ccc3ncnc(Nc4ccc(OCc5cccc(F)c5)c(Cl)c4)c3c2)o1 [Lapatinib] (first compound max 1 µM, 7x7, partner max 10 µM) | DSH1 (Bladder Carcinoma) | 1 (yes) |

Entry CC1(C)CCC(CN2CCN(c3ccc(C(=O)NS(=O)(=O)c4ccc(NCC5CCOCC5)c([N+](=O)[O-])c4)c(Oc4cnc5[nH]ccc5c4)c3)CC2)=C(c2ccc(Cl)cc2)C1 [Venetoclax] + CCN(CCO)CCCOc1ccc2c(Nc3cc(CC(=O)Nc4cccc(F)c4)[nH]n3)ncnc2c1 [AZD2811] (first compound max 1 µM, 7x7, partner max 1 µM) : is its Bliss excess no less than 0.03?
0 (no)

# check: Bliss excess of CS(=O)(=O)CCNCc1ccc(-c2ccc3ncnc(Nc4ccc(OCc5cccc(F)c5)c(Cl)c4)c3c2)o1 [Lapatinib] + C[C@@H](Oc1cc(-c2cnn(C3CCNCC3)c2)cnc1N)c1c(Cl)ccc(F)c1Cl [Crizotinib] (first compound max 10 µM, 7x7, partner max 10 µM) is greater than or equal to 0.03
1 (yes)

Quick check: does COc1nnc2ccc(N3CCC(c4ccc(OCCN5CCN(C)C(=O)[C@H]5C)cc4)CC3)nn12 [AZD5153] + Cn1cnc2c(F)c(Nc3ccc(Br)cc3Cl)c(C(=O)NOCCO)cc21 [Selumetinib] (first compound max 1 µM, 7x7, partner max 10 µM) have Bliss excess greater than or equal to 0.03?
0 (no)

----------
- Tested on: NCI-H2595 (Mesothelioma)
- Assay protocol: combination Emax (second highest fraction inhibited in the dose matrix, 72 h); higher = more inhibition; extreme values may be limits of the assay
Binary classification by combination Emax, with 0.2 as an inclusive lower bound for TRUE; all other cases are FALSE.

Threshold query (combination Emax >= 0.2) on CN(CCO)CC[C@H](CSc1ccccc1)Nc1ccc(S(=O)(=O)NC(=O)c2ccc(N3CCC([C@@H](O)c4ccccc4-c4ccc(Cl)cc4)CC3)cc2)cc1S(=O)(=O)C(F)(F)F [AZD4320] + CC(=O)O[C@H]1C(=O)[C@@]2(C)[C@H]([C@H](OC(=O)c3ccccc3)[C@]3(O)C[C@H](OC(=O)[C@H](O)[C@@H](NC(=O)c4ccccc4)c4ccccc4)C(C)=C1C3(C)C)[C@]1(OC(C)=O)CO[C@@H]1C[C@@H]2O [Paclitaxel] (first compound max 1 µM, 7x7, partner max 3 µM)
TRUE

Would you say CCN(CCO)CCCOc1ccc2c(Nc3cc(CC(=O)Nc4cccc(F)c4)[nH]n3)ncnc2c1 [AZD2811] + C[C@@H]1COCCN1C2=NC(=NC(=C2)C3(CC3)[S@](=N)(=O)C)C4=C5C=CNC5=NC=C4 [AZD6738] (first compound max 1 µM, 7x7, partner max 10 µM) shows combination Emax at minimum 0.2?
TRUE

Item CC(=O)c1c(C)c2cnc(Nc3ccc(N4CCNCC4)cn3)nc2n(C2CCCC2)c1=O [Palbociclib] + Cn1cnc2c(F)c(Nc3ccc(Br)cc3Cl)c(C(=O)NOCCO)cc21 [Selumetinib] (first compound max 10 µM, 7x7, partner max 10 µM) with combination Emax of 0.2 or above?
FALSE

Is the recorded value of combination Emax equal to or greater than 0.2 for this compound? COc1cccc2c1C(=O)c1c(O)c3c(c(O)c1C2=O)C[C@@](O)(C(=O)CO)C[C@@H]3O[C@H]1C[C@H](N)[C@H](O)[C@H](C)O1 [Doxorubicin] + Cc1cc2ncnn2cc1Nc1ncc2c(n1)n(C1CCOCC1)c(=O)n2C [AZD7648] (first compound max 1 µM, 7x7, partner max 10 µM)
TRUE

Please tell me: is the compound Cc1c2c(nn1C)CSCc1cc(n(C)n1)CSc1cc(c3ccccc3c1)OCCCc1c(C(=O)O)n(C)c3c-2c(Cl)ccc13 [AZD5991] + CN(C)CCCOc1ccc(-c2ccc3ncc4c(c3c2)n(C2CCOCC2)c(=O)n4C)cn1 [AZD0156] (first compound max 1 µM, 7x7, partner max 1 µM) at or over 0.2 in terms of combination Emax?
TRUE

Assess whether reported combination Emax for Cc1c2c(nn1C)CSCc1cc(n(C)n1)CSc1cc(c3ccccc3c1)OCCCc1c(C(=O)O)n(C)c3c-2c(Cl)ccc13 [AZD5991] + Cn1cnc2c(F)c(Nc3ccc(Br)cc3Cl)c(C(=O)NOCCO)cc21 [Selumetinib] (first compound max 1 µM, 7x7, partner max 3 µM) sits at 0.2 or higher.
TRUE

Hello, I need to know if CC1(C)CCC(CN2CCN(c3ccc(C(=O)NS(=O)(=O)c4ccc(NCC5CCOCC5)c([N+](=O)[O-])c4)c(Oc4cnc5[nH]ccc5c4)c3)CC2)=C(c2ccc(Cl)cc2)C1 [Venetoclax] + CN(C)CCCOc1ccc(-c2ccc3ncc4c(c3c2)n(C2CCOCC2)c(=O)n4C)cn1 [AZD0156] (first compound max 1 µM, 7x7, partner max 1 µM) has measured combination Emax not below 0.2. Thanks!
FALSE

Sourced from the supplement of paper PMC11061612
